Target: hCA XII (Homo sapiens, UniProt O43570)
Sequence (O43570 25-354): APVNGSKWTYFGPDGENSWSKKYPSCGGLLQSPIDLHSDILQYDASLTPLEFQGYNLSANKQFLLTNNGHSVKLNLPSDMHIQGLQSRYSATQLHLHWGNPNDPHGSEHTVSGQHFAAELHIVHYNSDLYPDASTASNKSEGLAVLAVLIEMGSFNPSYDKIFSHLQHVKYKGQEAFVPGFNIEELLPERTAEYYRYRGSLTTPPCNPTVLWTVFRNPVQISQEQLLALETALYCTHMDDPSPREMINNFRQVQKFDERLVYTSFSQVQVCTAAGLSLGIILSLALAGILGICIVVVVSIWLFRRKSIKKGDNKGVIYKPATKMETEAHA
reported metric: Ki
Returns: string containing the number followed by the unit.

Sample answers from the record:
> print(dat)
                            compound.smiles  reported.metric   result
1  COc1ccc(C(C)=NNC(=O)CSc2nc3ccccc3c(=O)n2CCc2ccc(S(N)(=O)=O)cc2)cc1OC               Ki  68.1 nM
2  COc1cc(C(C)=NNC(=O)CSc2nc3ccccc3c(=O)n2CCc2ccc(S(N)(=O)=O)cc2)cc(OC)c1OC               Ki  85.2 nM

Let's switch to this compound now.
IN: # lookup: Ki of COc1ccc(C=NNC(=O)CSc2nc3ccccc3c(=O)n2CCc2ccc(S(N)(=O)=O)cc2)cc1OC
OUT: 69.2 nM
